- target under test: acetylcholine receptor
- test method notes: SPR, AchR on chip, peptide 10 uM
The following binders are listed with their measured Binding affinity (RU) values.
Give just the numeric value; RU need not be written.

Solved entries:
[
  {
    "binder": "RQLRR [5mer-18]",
    "measurement kind": "Binding affinity (RU)",
    "result unit": "RU",
    "observed result": 69
  },
  {
    "binder": "RLVYK [5mer-533]",
    "measurement kind": "Binding affinity (RU)",
    "result unit": "RU",
    "observed result": 84
  },
  {
    "binder": "RSYSR [5mer-311]",
    "measurement kind": "Binding affinity (RU)",
    "result unit": "RU",
    "observed result": 167
  },
  {
    "binder": "KVLCR [5mer-230]",
    "measurement kind": "Binding affinity (RU)",
    "result unit": "RU",
    "observed result": 67
  },
  {
    "binder": "RQQQR [5mer-26]",
    "measurement kind": "Binding affinity (RU)",
    "result unit": "RU",
    "observed result": 65
  }
]

Q. # lookup: Binding affinity (RU) of KWLCK [5mer-548]
A. 60

Q. Again, but for KSQCR [5mer-24]
A. 67

Q. Again, but for KWQTR [5mer-516]
A. 83

Q. Again, but for KGRYR [5mer-303]
A. 87

Q. Again, but for KWFTR [5mer-21]
A. 63

Q. Again, but for RQRSK [5mer-245]
A. 62

Q. Again, but for KRVRR [5mer-200]
A. 55

Q. Again, but for RWYTR [5mer-314]
A. 80

Q. Again, but for RVQRR [5mer-10]
A. 55
